What Kd was measured for each of the following?
# Target desc: SARS-COV-2 RBD extracellular domain expressed with a C-terminal mouse IgG2a Fc (SARS-CoV-2)
# Protocol: Biacore SPR, mAb captured on anti-hFc, 37 C
Answer with a number only, understood to be in nM.

Asked: Could you please provide reported Kd for mAb15162 (antibody, V domains shown) VH: EVQLVETGGGLIQPGGSLRLSCAASEFIVSRNYMSWVRQAPGKGLEWVSLIYSGGSTYYADSVKGRFTISRDNSKNILYLQMNSLRAEDTAVYYCARDRGGISDYWGQGTLVTVSS VL: DIQMTQSPSSLSASVGDRVTITCQASQDINKYLNWFQQKPGKAPKLLIYDASNLETGVPSRFSGSGSGTDFTFTISSLQPEDIATYYCQQYDNLPRTFGQGTKLEIKR ? Thanks!
Given back: 0.5

Asked: Provide measured Kd value, entry: mAb14232 (antibody, V domains shown) VH: QITLKESGPTLVKPTQTLTLTCTFSGFSLSASGVGVGWIRQPPGKALEWLALIYWDDDKRYSPSLKSRLTITKDTSKNQVVLTMTNMDPVDTATYYCAQHKVATIFDYWGQGTLVTVSS VL: QSALTQPPSASGSPGQSVTISCTATSSDVGNYNYVSWYQQHPGKAPKLMIYEVTKRPSGVPDRFSGSKSGNTASLTVSGLQAEDEADYYCSSYAGSWGVFGGGTKLTVLG
Given back: 0.893

Asked: Consider the binder mAb14280 (antibody, V domains shown) VH: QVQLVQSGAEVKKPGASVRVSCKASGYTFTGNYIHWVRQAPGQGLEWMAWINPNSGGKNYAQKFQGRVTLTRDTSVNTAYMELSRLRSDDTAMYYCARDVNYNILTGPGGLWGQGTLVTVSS VL: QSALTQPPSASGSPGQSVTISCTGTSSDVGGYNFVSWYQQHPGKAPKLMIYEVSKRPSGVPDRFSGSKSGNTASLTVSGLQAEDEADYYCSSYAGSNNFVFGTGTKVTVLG . State its measured Kd.
Given back: 0.264

Asked: For the binder mAb15159 (antibody, V domains shown) VH: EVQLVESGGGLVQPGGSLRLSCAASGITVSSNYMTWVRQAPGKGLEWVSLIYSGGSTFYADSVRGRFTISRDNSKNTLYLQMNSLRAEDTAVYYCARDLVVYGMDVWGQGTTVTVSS VL: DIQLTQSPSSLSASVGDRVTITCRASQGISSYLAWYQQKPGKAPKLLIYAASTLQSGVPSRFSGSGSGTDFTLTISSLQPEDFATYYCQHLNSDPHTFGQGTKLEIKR , give its reported Kd.
Given back: 0.135

Asked: Could you please provide reported Kd for mAb13459 (antibody, V domains shown) VH: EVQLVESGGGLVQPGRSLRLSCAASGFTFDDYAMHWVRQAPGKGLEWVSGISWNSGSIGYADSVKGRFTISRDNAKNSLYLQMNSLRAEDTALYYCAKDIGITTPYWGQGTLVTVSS VL: AIQMTQSPSSLSASVGDRVTITCRASQDIRNDLGWYQQKPGKAPKLLIYSASSLQTGVPSRFSGSGSGTDFTLTISSLHPEDFATYYCLQDYNYVWTFGQGTKVEIKR ? Thanks!
Given back: 0.0939
